Assay: Solubility in different base solutions at 25° C. (free acid)
Format: physicochemical
Details: aqueous buffer, 1.0M TRIS
measure: solubility (µg/mL)

• Nc1nc(-n2cc(C(=O)O)c(=O)c3cc(F)c(N4CC(O)C4)c(Cl)c32)c(F)cc1F = 5760

###

Test: Solubility in different base solutions at 25° C. (free acid)
Type: physicochemical
Conditions: aqueous buffer, 1M L-arginine
Procedure: Solubilities of 1-(6-amino-3,5-difluoropyridin-2-yl)-8-chloro-6-fluoro-1,4-dihydro-7-(3-hydroxyazetidin-1-yl)-4-oxo-3-quinolinecarboxylic acid in different base solutions at 25° C. are shown in TABLE 2.
measure: solubility

• Nc1nc(-n2cc(C(=O)O)c(=O)c3cc(F)c(N4CC(O)C4)c(Cl)c32)c(F)cc1F = 11.2 mg/mL

###

Assay: Solubility in different base solutions at 25° C. (free acid)
Assay type: physicochemical
Settings: aqueous buffer, 1M ethanolamine
Experimental: Solubilities of 1-(6-amino-3,5-difluoropyridin-2-yl)-8-chloro-6-fluoro-1,4-dihydro-7-(3-hydroxyazetidin-1-yl)-4-oxo-3-quinolinecarboxylic acid in different base solutions at 25° C. are shown in TABLE 2.
measure: solubility (mg/mL)

* Nc1nc(-n2cc(C(=O)O)c(=O)c3cc(F)c(N4CC(O)C4)c(Cl)c32)c(F)cc1F | 24.9

###

Test: Solubility in different buffered solutions at 25° C.
Assay type: physicochemical
Details: organic solvent or mixture; ethanol, 25° C.
measure: solubility

* Nc1nc(-n2cc(C(=O)O)c(=O)c3cc(F)c(N4CC(O)C4)c(Cl)c32)c(F)cc1F | 867 µg/mL

###

Assay: Solubility in different buffered solutions at 25° C.
Assay type: physicochemical
Conditions: aqueous buffer; phosphate buffer 6.8, final pH 6.8, 25° C.
measure: solubility (µg/mL)

- Nc1nc(-n2cc(C(=O)O)c(=O)c3cc(F)c(N4CC(O)C4)c(Cl)c32)c(F)cc1F: 66.8

###

Assay: Solubility in different buffered solutions at 25° C.
Type: physicochemical
Details: aqueous buffer; Phosphate Buffer 8.0, final pH 7.8, 25° C.
measure: solubility (µg/mL)

• Nc1nc(-n2cc(C(=O)O)c(=O)c3cc(F)c(N4CC(O)C4)c(Cl)c32)c(F)cc1F = 651

###

Assay: Solubility in different base solutions at 25° C. (free acid)
Assay type: physicochemical
Details: aqueous buffer, 0.5M KOH
measure: solubility (mg/mL)

- Nc1nc(-n2cc(C(=O)O)c(=O)c3cc(F)c(N4CC(O)C4)c(Cl)c32)c(F)cc1F: 24.4

###

Test: Solubility in different base solutions at 25° C. (free acid)
Type: physicochemical
Settings: aqueous buffer, 1M meglumin
measure: solubility (mg/mL)

* Nc1nc(-n2cc(C(=O)O)c(=O)c3cc(F)c(N4CC(O)C4)c(Cl)c32)c(F)cc1F | 32.1

###

Experiment: Solubility in different buffered solutions at 25° C.
Format: physicochemical
Conditions: saline or isotonic; saline, final pH 5.8-5.9, 25° C.
measure: solubility (µg/mL)

* Nc1nc(-n2cc(C(=O)O)c(=O)c3cc(F)c(N4CC(O)C4)c(Cl)c32)c(F)cc1F | 13

###

Assay: Solubility in different buffered solutions at 25° C.
Type: physicochemical
Details: 0.1 HCl (printed 0.1 HC1), simulated gastric fluid; 0.1 HC1, final pH 0.8, 25° C.
measure: solubility (µg/mL)

- Nc1nc(-n2cc(C(=O)O)c(=O)c3cc(F)c(N4CC(O)C4)c(Cl)c32)c(F)cc1F: 3.26
